# experimental-protocol: Inhibition of soybean lipoxygenase measured for 6 mins
# Design: species or system Glycine max
pIC50: −log10 of the molar value.
parameter: pIC50

These solved cases illustrate the format of a correct answer.
CN1CC(O)(c2ccc(-c3ccccc3)cc2)OC2CCCCC21 (stereo not drawn): 3.96
Br.CN1CC(O)(c2ccc3ccccc3c2)OC2CCCCC21 (stereo not drawn): < 3.52

Query: What does the data say about its pIC50? Entry: Br.CN1CCOC(O)(c2ccc3ccccc3c2)C1 (stereo not drawn)
Reply: < 3.52

Query: # query: pIC50 of entry Br.COc1ccc2cc(-c3ccc(C4(O)CN5CCCCC5CO4)cc3)ccc2c1 (stereo not drawn)
Reply: < 4.00

Query: Returns the measured pIC50 for the input molecule. Input: Br.OC1(c2ccc(-c3ccc4ccccc4c3)cc2)CN2CCCCC2CO1 (stereo not drawn)
Reply: < 4.00

Query: Request the reported pIC50 associated with Br.COc1ccc2cc(-c3ccc(C4(O)CN(C)C5CCCCC5O4)cc3)ccc2c1 (stereo not drawn)
Reply: < 4.00

Query: Which pIC50 reading was recorded for the molecule Br.OC1(c2ccc3ccccc3c2)CN2CCCCC2CO1 (stereo not drawn) ?
Reply: < 3.52

Query: // lookup pIC50 for Br.COc1ccc2cc(C3(O)CN(C)C4CCCCC4O3)ccc2c1 (stereo not drawn)
Reply: 4.08
